B1: Azoarcus group I ribozyme (parent)
chain: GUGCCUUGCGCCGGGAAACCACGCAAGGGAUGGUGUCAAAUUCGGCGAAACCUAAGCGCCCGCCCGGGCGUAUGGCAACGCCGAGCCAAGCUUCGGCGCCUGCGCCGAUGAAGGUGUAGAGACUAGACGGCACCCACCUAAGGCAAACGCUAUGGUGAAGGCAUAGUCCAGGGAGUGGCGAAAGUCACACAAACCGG

Variants of: B1
Test: reverse-splicing fitness (ratio to wild type); higher = more active; in vitro selection; Mg2+ level not given
The entries below come with measured reverse-splicing fitness values attached.

{"columns": ["Sequence Variant", "reverse-splicing fitness"],
 "data": [
  ["A111U A120G A145U C150G C169A U176G", 0.00496],
  ["A111U A120G A145U C150U C169A U176G", 0.00508],
  ["C82A A145G C169A U176C", 0.0322],
  ["C82A A120C A145U C150U U176C", 0.0422],
  ["C82U A111C A120G A145U C150U C169A U176G", 0.00451],
  ["C82U A111C A145G C150A U176C", 0.0313],
  ["C82U A111U A120C C150A C169A U176G", 0.00592],
  ["A111U C150U C169U", 0.0631],
  ["C82A A111G C150A C169U U176G", 0.00815],
  ["C82U A111C A120G A145G C150G C169U U176C", 0.0104],
  ["C82U A120C C150U U176C", 0.0444],
  ["C82G A111C A120C A145U C150G C169A U176G", 0.00726],
  ["C82A A111U A120U A145U C150A C169U U176C", 0.00277],
  ["C82A A120G A145C U176C", 0.0111]
]}
